- protocolDetails: Human serum protein binding, ultracentrifugation assay
- Type: in vitro ADME

{"columns": ["chemicalStructure", "fraction unbound"],
 "data": [
  ["C=C(C)[C@@H]1CC[C@]2(NCCN3CCS(=O)(=O)CC3)CC[C@]3(C)[C@H](CC[C@@H]4[C@@]5(C)CC=C(C6=CC[C@@](CF)(C(=O)O)CC6)C(C)(C)[C@@H]5CC[C@]43C)[C@@H]12", 0.14]
]}
